- assayMethodText: Steady-state lapatinib PK in plasma, alone and with everolimus
- conditionInfo: human, plasma, oral, 1250 mg
measure: AUC (ng·h/mL)

{"columns": ["smi", "measure", "observedValue"],
 "data": [
  ["CS(=O)(=O)CCNCc1ccc(-c2ccc3ncnc(Nc4ccc(OCc5cccc(F)c5)c(Cl)c4)c3c2)o1", "AUC", 37400]
]}

###

- assayMethodText: Steady-state everolimus PK in whole blood, alone and with lapatinib
- Type: in vivo, human
- conditionInfo: human, whole blood, oral, 5 mg
measure: Cmax (ng/mL)

{"columns": ["smi", "unitsOfMeasure", "observedValue"],
 "data": [
  ["CO[C@H]1C[C@@H]2CC[C@@H](C)[C@@](O)(O2)C(=O)C(=O)N2CCCC[C@H]2C(=O)O[C@H]([C@H](C)C[C@@H]2CC[C@@H](OCCO)[C@H](OC)C2)CC(=O)[C@H](C)/C=C(\\C)[C@@H](O)[C@@H](OC)C(=O)[C@H](C)C[C@H](C)/C=C/C=C/C=C/1C", "ng/mL", 37]
]}

###

- assayMethodText: Steady-state lapatinib PK in plasma, alone and with everolimus
- conditionInfo: human, plasma, oral
measure: AUC

{"columns": ["compound", "measure", "observedValue"],
 "data": [
  ["CS(=O)(=O)CCNCc1ccc(-c2ccc3ncnc(Nc4ccc(OCc5cccc(F)c5)c(Cl)c4)c3c2)o1 [lapatinib]", "AUC", "33900 ng·h/mL"]
]}
